System: H3K9me2 in HCT116 cells
Assay: HCT116 H3K9me2 in-cell western assay
Assay type: cell-based
Conditions: Homo sapiens, HCT-116, 72 h, HCT116 cells, 72 hours incubation; read-out: H3K9me2 ICW IC50
pIC50: −log10 of the molar value.
parameterMeasured: pIC50

- CNc1ccnc(Nc2cc3c(c(C4=CCN(C)CCC4)c2)OCC3)n1: > 7.00
- Cc1cc(NCC2CCOCC2)nc(Nc2cc3c(c(C4=CCN(C)CCC4)c2)OCC3)n1: 6.30 to 7.00
- CNc1cc(C)nc(Nc2cc3c(c(C4=CCN(C)CCC4)c2F)OCC32CC2)n1: > 7.00
- CNc1cc(C)nc(Nc2cc(OCCCN3CCCC3)c3c(c2)OC(F)(F)O3)n1: 6.30 to 7.00
- CNc1cc(C)nc(Nc2cc3c(c(C4=CCNC[C@H](O)C4)c2F)OC[C@H]3C)n1 (stereo in doubt): > 7.00
- Cc1cc(NCC(F)(F)F)cc(Nc2cc3c(c(C4=CCNCCC4)c2)OCC3)n1: 5.70 to 6.30
- CNc1cc(C)nc(Nc2cc3c(c(C4=CCN(C)CCC4)c2Cl)OCCO3)n1: > 7.00
- CNc1cc(C)nc(Nc2cc(OCCCN3CCCC3)c3c(c2)OCCO3)n1: 6.30 to 7.00
